- Assay system: T1, whole KDR-ECD (Cat. # 676490, Calbiochem) (human, UniProt P35968 20-764)
- T1 construct: extracellular domain; Bought soluble protein; also called soluble KDR; VEGF Receptor 2 D1-7
- T1 sequence (P35968 20-764): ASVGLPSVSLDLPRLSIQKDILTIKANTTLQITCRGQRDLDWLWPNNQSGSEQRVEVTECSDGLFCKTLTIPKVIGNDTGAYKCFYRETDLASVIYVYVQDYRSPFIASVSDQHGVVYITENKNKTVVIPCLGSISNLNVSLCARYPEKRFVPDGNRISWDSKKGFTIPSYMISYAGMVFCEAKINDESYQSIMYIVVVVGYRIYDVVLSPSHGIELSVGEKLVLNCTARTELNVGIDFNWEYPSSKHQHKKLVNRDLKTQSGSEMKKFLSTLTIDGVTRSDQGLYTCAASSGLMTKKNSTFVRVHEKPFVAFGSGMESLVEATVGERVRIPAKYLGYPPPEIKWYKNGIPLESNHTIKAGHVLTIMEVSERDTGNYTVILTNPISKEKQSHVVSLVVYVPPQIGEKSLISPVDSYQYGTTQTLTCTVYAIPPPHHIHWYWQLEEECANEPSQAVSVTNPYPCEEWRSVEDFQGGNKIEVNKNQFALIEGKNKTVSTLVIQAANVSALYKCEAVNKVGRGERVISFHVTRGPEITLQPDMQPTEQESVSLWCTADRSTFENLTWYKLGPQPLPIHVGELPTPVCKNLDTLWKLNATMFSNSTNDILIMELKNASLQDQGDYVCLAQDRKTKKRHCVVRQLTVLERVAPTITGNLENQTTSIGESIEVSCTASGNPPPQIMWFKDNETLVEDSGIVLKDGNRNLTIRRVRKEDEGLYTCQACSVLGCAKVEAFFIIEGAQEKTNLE
- Assay protocol: ELISA, KDR-ECD coat 5 ug/mL, antibody 0.1 ug/mL
Kindly state ELISA reading for each of the entries shown.
Enter a number only.

What does the data say about its ELISA reading? Entry: 32F4 (antibody, V domains shown, Fully human monoclonal antibody from a XenoMouse hybridoma (IgG2 or IgG4 strain), purified) VH: QLQLQESGPGLVKPSGTLSLSCTVSGGSISSRSDYWGWIRQPPGKGLEWIGTIYYSGNTFYNPSLKSRVTISVDTSKKQFSLKLSSVTAADTAVYYCARQQLVLYYFDYWGQGTLVTVSS VL: EIVLTQSPGTLSLSPGERATLSCRTSQSVSSSYLAWYQQKPGQAPRLLIYGASSRATGVPDRFSGSGSGTDFSLTISRLEPEDFAVYYCQQYGSSPPLTFGGGTKVEIK
0.132

Would you kindly share the measured ELISA reading for 22B8 (antibody, V domains shown, Fully human monoclonal antibody from a XenoMouse hybridoma (IgG2 or IgG4 strain), purified) VH: QLQLQESGPGLVKPSETLSLTCTVSGGSISSRYYYWGWVRQPPGKGLEWIGTIYYSGHTYYNPSLKTRVTISVDTSKNQFSLKLISVTAADTAVYYCATQQLVLYYFDFWGQGTLVTVSS VL: EIVLTQSPGTLSLSPGERAALSCRASQSISSSYLAWYQQRPGQAPRLLIYGASSRATGIPDRFNGSGSGTDFTLTISRLEPEDFAVYYCQQFGSSITFGQGTRLEIK ?
0.089
